Please respond with reported pIC50 for every item in the list.
# target-or-system: elastase from human neutrophil (Homo sapiens, UniProt P08246)
# Construct: using elastase from human neutrophil; from tissue; host or cells: human neutrophil
# Sequence (P08246 30-247 limits assumed): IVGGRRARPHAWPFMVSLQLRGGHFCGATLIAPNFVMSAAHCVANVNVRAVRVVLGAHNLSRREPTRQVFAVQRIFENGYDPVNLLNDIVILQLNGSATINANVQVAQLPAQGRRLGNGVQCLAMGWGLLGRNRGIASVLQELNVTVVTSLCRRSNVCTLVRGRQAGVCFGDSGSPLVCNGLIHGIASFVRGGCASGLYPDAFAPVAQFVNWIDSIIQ
# assay-name: Inhibitory effect on elastase (spectrophotometric method, substrate Suc-Ala-Pro-Ala-pNA)
# Format: biochemical
# protocol-conditions: Y represents an oxygen atom; pH 8.0, 37° C., 30 minutes; read-out: Inhibitory Effect on Elastase, IC50
Numbers only, as −log10 of the molar value.

Example entries and their recorded answers appear below.
                                   compound  reported_metric  readout_number
0  CCCN(CCC)S(=O)(=O)c1ccc(OC(=O)c2ccc(NC(=N)N)cc2)cc1            pIC50            4.24
1  CC(=O)O.CCS(=O)(=O)Oc1cc(Cl)cc(OC(=O)c2ccc(NC(=N)N)cc2)c1 [Example 75, acetate]            pIC50            5.96
2   COc1cc(OC)cc(OC(=O)c2ccc(NC(=N)N)cc2)c1            pIC50            4.40

Lab note: each compound below needs its pIC50 filled in.
1. CC(=O)Oc1cc(Cl)cc(OC(=O)c2ccc(NC(=N)N)cc2)c1
2. N=C(N)Nc1ccc(C(=O)Oc2cccc(C(F)(F)F)c2)cc1
3. N=C(N)Nc1ccc(C(=O)Oc2ccccc2F)cc1
4. CCC(C)OC(=O)c1cccc(OC(=O)c2ccc(NC(=N)N)cc2)c1Cl (centres unmarked)

1. 6.32
2. 4.89
3. 4.40
4. 5.59

Lab note: each compound below needs its pIC50 filled in.
1. N=C(N)Nc1ccc(C(=O)Oc2cccc([N+](=O)[O-])c2)cc1
2. N=C(N)Nc1ccc(C(=O)Oc2c(Cl)cccc2Cl)cc1
3. N=C(N)Nc1ccc(C(=O)Oc2cc(O)cc(C(=O)NCc3ccccc3)c2)cc1
4. CC(C)S(=O)(=O)Oc1cc(Cl)cc(OC(=O)c2ccc(NC(=N)N)cc2)c1
5. COc1cccc(OC(=O)c2ccc(NC(=N)N)cc2)c1

1. 4.96
2. 5.70
3. 4.06
4. 5.96
5. 4.00

Lab note: each compound below needs its pIC50 filled in.
1. N=C(N)Nc1ccc(C(=O)Oc2cccc(C(=O)c3ccccc3)c2)cc1
2. COc1ccc(Cl)c(OC(=O)c2ccc(NC(=N)N)cc2)c1
3. N=C(N)Nc1ccc(C(=O)Oc2cccc(S(N)(=O)=O)c2)cc1
4. CCN(CC)S(=O)(=O)c1cc(Cl)cc(OC(=O)c2ccc(NC(=N)N)cc2)c1

1. 4.04
2. 4.89
3. 4.19
4. 5.32
